The origin of these recorded values is patent US20220195070A1.

target: T1, Anti-IL-8 Antibody; experiment: SPR (Biacore T200), 25 C, pH 7.4; SKA antibody captured by anti-rabbit IgG, Anti-IL-8 Antibody injected 0-800 nM
T1 construct: also called anti-human IL-8 antibody; Fc-Mutated Antibody
T1 sequence (constant, as listed by the source limits assumed): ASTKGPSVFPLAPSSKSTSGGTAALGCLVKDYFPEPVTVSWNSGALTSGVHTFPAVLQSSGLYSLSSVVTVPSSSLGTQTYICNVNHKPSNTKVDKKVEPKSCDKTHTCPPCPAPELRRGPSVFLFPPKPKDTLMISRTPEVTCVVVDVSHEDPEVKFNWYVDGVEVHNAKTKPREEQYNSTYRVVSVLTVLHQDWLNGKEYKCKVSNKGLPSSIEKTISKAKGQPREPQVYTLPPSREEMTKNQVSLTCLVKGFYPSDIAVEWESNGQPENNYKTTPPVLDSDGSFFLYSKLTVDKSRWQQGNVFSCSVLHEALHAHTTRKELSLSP
Please respond with reported pKd for every item in the list.
Give bare numbers, as −log10 of the molar value.

Worked cases, pKd given:
>  <binder>
SKA0046 (antibody, V domains shown, Recombinant rabbit monoclonal from B-cell cloning, expressed in FreeStyle 293-F cells; the first screen used B-cell culture supernatant; also called Anti-SG115 Antibody; rabbit Anti Fc-Mutation Antibody) VH: QEQLVESGGGLVQPEGSLTLTCTASGFSLSSSNYMWWVRQAPGKGLEWIACIHASSSGDTYYANWAKGRFTISKTSSTTVTLQMTSLTAADTATYFCARGGYIYGDGGYNGVAGFSLWGPGTLVTVSS VL: DVVMTQTPASVSEPVGGTVTIKCQASETIGNALAWYQQKPGQRPKLLIYGASNLESGVPSRFKGSGSGTEFTLTISDVQCDDAATYYCQSIYYSSSADTFFFPFGGGTEVVVKG

>  <pKd>
7.30

$$$$
>  <binder>
SKA0016 (antibody, V domains shown, Recombinant rabbit monoclonal from B-cell cloning, expressed in FreeStyle 293-F cells; the first screen used B-cell culture supernatant; also called Anti-SG115 Antibody; rabbit Anti Fc-Mutation Antibody) VH: QEQLVESGGGLVQPEGSLTLTCTASGFSFSSSDYMCWVRQAPGKGLEWIACIYIGSNGDTFYASWAKGRFTISKTSSTTVTLQMTSLTAADTATYFCARDSRRADDYGTRLDLWGQGTLVTVSS VL: DIVMTQTPSSVSAAVGGTVTIKCQASQNIYRNLAWYQQKPGQPPKLLIYQASKLESGVPSRFKGSGSGTEFTLTISDLDCDDAASYYCQSISYISSGDTFFWAFGGGTEVVVKG

>  <pKd>
7.22

$$$$

[Q] Quickly give me recorded pKd for SKA0009 (antibody, V domains shown, Recombinant rabbit monoclonal from B-cell cloning, expressed in FreeStyle 293-F cells; the first screen used B-cell culture supernatant; also called Anti-SG115 Antibody; rabbit Anti Fc-Mutation Antibody) VH: QSVEESGGRLVTPGTSLTLTCTVSGIDLSSYGMGWVRQAPGMGLEYIGIIYAAGRTYYASWVKGRFIISKTSTTVDLEMTSLTTEDTATYFCARHGSWYAGMDLWGPGTLVTVSS VL: AIEMTQTPSPVSAAVGGTVSINCQASEDIENYFAWYQQKPGQPPKLLIYDASELASGVPSRFSGSGSGTDFTLTISGVQCDDAATYYCQHADYAASSENTFGGGTEVVVKG
[A] 7.44
